Attribution: patent US20260306527A1

Give inhibition at 10 µM for every item shown.
molecular target: PRMT8 (Homo sapiens, UniProt Q9NR22); assay: radioactive assay (Reaction Biology Corp.), inhibition of PRMT8; type: biochemical
Sequence (Q9NR22 whole entry, species assumed): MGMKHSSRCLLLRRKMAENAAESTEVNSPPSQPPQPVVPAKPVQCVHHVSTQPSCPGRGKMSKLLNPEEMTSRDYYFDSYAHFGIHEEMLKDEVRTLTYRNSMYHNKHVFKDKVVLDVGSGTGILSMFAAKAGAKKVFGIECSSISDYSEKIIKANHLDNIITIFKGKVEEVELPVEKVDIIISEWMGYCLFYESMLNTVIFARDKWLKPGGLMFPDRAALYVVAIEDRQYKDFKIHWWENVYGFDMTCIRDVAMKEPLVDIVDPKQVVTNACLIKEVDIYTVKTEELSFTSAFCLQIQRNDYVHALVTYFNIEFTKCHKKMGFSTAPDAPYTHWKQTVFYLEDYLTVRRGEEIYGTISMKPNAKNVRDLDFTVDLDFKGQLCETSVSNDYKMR
One number for each entry, in %.

The following compounds each have a reported value; give each one's inhibition at 10 µM.
1. COc1cc2nc(-c3cccc(F)c3)nc(NCCSC[C@H]3O[C@@H](n4cnc5c(N)ncnc54)[C@H](O)[C@@H]3O)c2cc1OC [Compound 12c]
2. COc1cc2nc(-c3ccc(Cl)cc3)nc(NCCSC[C@H]3O[C@@H](n4cnc5c(N)ncnc54)[C@H](O)[C@@H]3O)c2cc1OC [Compound 12a]
3. N=C(NCCCSC[C@H]1O[C@@H](n2cnc3c(NCCCc4ccccc4)ncnc32)[C@H](O)[C@@H]1O)NC1CCCCC1 [Compound 19e]

(A)
1. 35
2. 23
3. 79

###

Give inhibition at 10 µM for every item shown.
target: PRMT6 (Homo sapiens); test: radioactive assay (Reaction Biology Corp.), inhibition of PRMT6; assay type: biochemical
Sequence (Q96LA8 whole entry, species assumed): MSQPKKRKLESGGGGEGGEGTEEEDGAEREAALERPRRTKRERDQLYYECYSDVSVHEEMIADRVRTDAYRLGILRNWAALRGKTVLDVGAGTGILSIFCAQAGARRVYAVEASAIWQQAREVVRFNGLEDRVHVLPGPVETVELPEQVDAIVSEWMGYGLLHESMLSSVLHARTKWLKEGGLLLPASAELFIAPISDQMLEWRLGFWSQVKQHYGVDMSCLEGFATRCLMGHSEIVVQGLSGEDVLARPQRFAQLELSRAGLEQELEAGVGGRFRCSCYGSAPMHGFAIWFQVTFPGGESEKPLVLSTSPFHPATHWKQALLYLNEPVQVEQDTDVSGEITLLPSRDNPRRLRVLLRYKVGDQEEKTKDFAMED
Number plus unit, in that order.

Nc1ncnc2c1ncn2[C@@H]1O[C@H](CSCCOc2ccc(-c3cccc(O)c3)cc2)[C@@H](O)[C@H]1O [Compound 14f]    13%
Nc1ncnc2c1ncn2[C@@H]1O[C@H](CSCCNC(=O)NCc2ccc(-c3cn[nH]c3)cc2)[C@@H](O)[C@H]1O [Compound 8g]    5%
N=C(NCCCSC[C@H]1O[C@@H](n2cnc3c(N)ncnc32)[C@H](O)[C@@H]1O)Nc1cccc(-c2ccc3c(c2)OCCO3)c1 [Compound 6g]    98%

The following compounds each have a reported value; give each one's inhibition at 10 µM.
1. Nc1ncnc2c1ncn2[C@@H]1O[C@H](CSCCNC(=O)NCc2ccccc2)[C@@H](O)[C@H]1O [Compound 7a]
2. COc1cc2nc(-c3ccc(O)cc3)nc(NCCSC[C@H]3O[C@@H](n4cnc5c(N)ncnc54)[C@H](O)[C@@H]3O)c2cc1OC [Compound 12b]
3. CCNC(=O)NCCSC[C@H]1O[C@@H](n2cnc3c(N)ncnc32)[C@H](O)[C@@H]1O [Compound 7g]
4. Nc1ncnc2c1ncn2[C@@H]1O[C@H](CSCCNCc2cccc(-c3cccc(O)c3)c2)[C@@H](O)[C@H]1O [Compound 10i]

(A)
1: 89%; 2: 91%; 3: 3%; 4: 55%

###

target: PRMT5 (Homo sapiens); assay: selectivity of YD1113 on PRMT panel, PRMT5; assay type: biochemical; conditions: read-out: IC50 (nM) | PRMT5
Sequence (O14744 whole entry, species assumed): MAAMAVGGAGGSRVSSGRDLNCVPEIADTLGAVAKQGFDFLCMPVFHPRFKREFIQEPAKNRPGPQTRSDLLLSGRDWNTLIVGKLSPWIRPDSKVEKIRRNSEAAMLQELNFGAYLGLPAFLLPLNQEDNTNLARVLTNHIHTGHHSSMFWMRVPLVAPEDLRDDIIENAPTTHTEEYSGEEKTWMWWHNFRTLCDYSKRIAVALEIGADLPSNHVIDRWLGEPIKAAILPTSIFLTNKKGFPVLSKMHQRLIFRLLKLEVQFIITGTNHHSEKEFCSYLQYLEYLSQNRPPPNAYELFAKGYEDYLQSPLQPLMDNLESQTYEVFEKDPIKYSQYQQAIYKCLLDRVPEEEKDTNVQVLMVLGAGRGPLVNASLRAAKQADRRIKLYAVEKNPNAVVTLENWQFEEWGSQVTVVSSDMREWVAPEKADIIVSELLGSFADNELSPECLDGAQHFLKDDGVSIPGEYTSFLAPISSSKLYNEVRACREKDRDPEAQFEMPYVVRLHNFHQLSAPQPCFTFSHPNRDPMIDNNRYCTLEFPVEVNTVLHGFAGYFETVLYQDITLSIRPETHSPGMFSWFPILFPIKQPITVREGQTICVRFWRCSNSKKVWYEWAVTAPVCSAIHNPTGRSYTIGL
Sequence (Q9BQA1 whole entry partner, species assumed): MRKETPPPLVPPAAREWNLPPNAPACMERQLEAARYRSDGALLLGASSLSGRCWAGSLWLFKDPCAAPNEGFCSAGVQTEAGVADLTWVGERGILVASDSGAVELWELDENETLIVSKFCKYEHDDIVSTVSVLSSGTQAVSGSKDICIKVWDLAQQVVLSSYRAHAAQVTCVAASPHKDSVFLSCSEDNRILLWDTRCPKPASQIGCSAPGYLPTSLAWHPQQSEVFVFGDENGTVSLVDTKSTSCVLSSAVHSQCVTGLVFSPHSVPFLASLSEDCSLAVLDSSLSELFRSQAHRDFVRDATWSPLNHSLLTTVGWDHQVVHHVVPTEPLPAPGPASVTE
Give IC50 for every item shown.
Give bare numbers, in nM.

Solved cases below.
N=C(NCCCSC[C@H]1O[C@@H](n2cnc3c(NCc4cn(Cc5ccccc5)nn4)ncnc32)C(O)[C@H]1O)Nc1cccc(Br)c1 (stereo in doubt) [YD1-254]    1790
N=C(NCCCSC[C@H]1O[C@@H](n2cnc3c(NCC#Cc4ccc(O)cc4)ncnc32)C(O)[C@H]1O)Nc1cccc(Br)c1 (stereo in doubt) [YD1-250]    136

Moving on to another molecule below.
Form field IC50, entry N=C(NCCCSC[C@H]1O[C@@H](n2cnc3c(NCC#Cc4ccccc4)ncnc32)[C@H](O)[C@@H]1O)Nc1cccc(Br)c1 [YD1-248] : 1380

###

target: PRMT8 (Homo sapiens, UniProt Q9NR22); test: radioactive assay (Reaction Biology Corp.), inhibition of PRMT8; format: biochemical
measured_endpoint: inhibition at 10 µM (%)
Answers are plain numbers, in %.

N=C(NCCSC[C@H]1O[C@@H](n2cnc3c(N)ncnc32)[C@H](O)[C@@H]1O)Nc1cccc(-c2cccc(F)c2)c1 [Compound 6d]    81
Nc1ncnc2c1ncn2[C@@H]1O[C@H](CSCCNC(=O)NCc2ccccc2)[C@@H](O)[C@H]1O [Compound 7a]    12
COc1cc2nc(-c3ccc(C(F)(F)F)cc3)nc(NCCSC[C@H]3O[C@@H](n4cnc5c(N)ncnc54)[C@H](O)[C@@H]3O)c2cc1OC [Compound 12e]    37
Nc1ncnc2c1ncn2[C@@H]1O[C@H](CSCCNC(=O)Nc2ccccc2)[C@@H](O)[C@H]1O [Compound 7f]    12
N=C(NCCCSC[C@H]1O[C@@H](n2cnc3c(N)ncnc32)[C@H](O)[C@@H]1O)Nc1cccc(-c2cccnc2)c1 [Compound 6m]    96
Nc1ncnc2c1ncn2[C@@H]1O[C@H](CSCCNCc2cccc(-c3ccc(O)cc3)c2)[C@@H](O)[C@H]1O [Compound 10b]    67
Nc1ncnc2c1ncn2[C@@H]1O[C@H](CSCCNCc2cccc(Br)c2)[C@@H](O)[C@H]1O [Compound 9a]    47

Form field inhibition at 10 µM, entry Nc1ncnc2c1ncn2[C@@H]1O[C@H](CSCCCNC(=O)NCCCc2ccccc2)[C@@H](O)[C@H]1O [Compound 7q] : 16

###

Give inhibition at 10 µM for every item shown.
Molecular target: UniProt:Q96LA8
Experiment: radioactive assay (Reaction Biology Corp.), inhibition of PRMT6
Format: biochemical
Method: Next, the inhibition activity of the library was investigated for five PRMT members from type I PRMTs. The PRMT 4, 6 and 8 methylation assays were performed by Reaction Biology corp.
One number for each entry, in %.

Solved cases below.
N=C(NCCCSC[C@H]1O[C@@H](n2cnc3c(NCCCc4ccccc4)ncnc32)[C@H](O)[C@@H]1O)NC1CCCC1 [Compound 19d]    91
COc1cc2nc(-c3ccc(N)cc3)nc(NCCSC[C@H]3O[C@@H](n4cnc5c(N)ncnc54)[C@H](O)[C@@H]3O)c2cc1OC [Compound 12j]    8

Moving on to another molecule below.
The molecule Nc1ncnc2c1ncn2[C@@H]1O[C@H](CSCCNCc2cccc(-c3ccc(O)cc3)c2)[C@@H](O)[C@H]1O [Compound 10b] , tested on UniProt:Q96LA8, showed inhibition at 10 µM of 55

###

biological target: PRMT5 (Homo sapiens); experiment: selectivity of YD1113 on PRMT panel, PRMT5; assay type: biochemical; conditions: read-out: IC50 value PRMT5
measured_endpoint: pIC50
Numbers only, as −log10 of the molar value.

Form field pIC50, entry Nc1ncnc2c1ncn2[C@@H]1O[C@H](CSCCNC(=O)NCc2ccccc2)[C@@H](O)[C@H]1O [Compound 7a] : 6.45

###

target: PRMT1 (Homo sapiens, UniProt Q99873); construct: made in house; test: SAHH-coupled fluorescence assay, inhibition of PRMT1; format: biochemical
Sequence (Q99873 whole entry, species assumed): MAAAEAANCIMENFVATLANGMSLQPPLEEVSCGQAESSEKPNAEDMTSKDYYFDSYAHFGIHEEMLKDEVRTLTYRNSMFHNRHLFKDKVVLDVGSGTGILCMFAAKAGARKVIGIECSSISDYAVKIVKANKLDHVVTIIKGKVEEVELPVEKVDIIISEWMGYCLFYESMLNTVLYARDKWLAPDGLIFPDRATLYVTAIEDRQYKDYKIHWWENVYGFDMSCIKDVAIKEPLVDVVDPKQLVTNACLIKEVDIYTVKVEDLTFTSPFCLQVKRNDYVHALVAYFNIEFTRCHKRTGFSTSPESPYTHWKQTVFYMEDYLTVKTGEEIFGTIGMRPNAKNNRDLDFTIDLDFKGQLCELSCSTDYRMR
The threshold is inclusive: inhibition at 10 µM of exactly 10% counts as class 1; values below receive class 0.

Nc1ccc(-c2ccc(CNC(=O)NCCSC[C@H]3O[C@@H](n4cnc5c(N)ncnc54)[C@H](O)[C@@H]3O)cc2)cc1    class 1
Nc1ncnc2c1ncn2[C@@H]1O[C@H](CSCCOc2ccc(-c3cccc(O)c3)cc2)[C@@H](O)[C@H]1O [Compound 14f]    class 0
Nc1ncnc2c1ncn2[C@@H]1O[C@H](CSCCCNC(=O)NCc2ccc3c(c2)OCO3)[C@@H](O)[C@H]1O    class 0
Nc1ncnc2c1ncn2[C@@H]1O[C@H](CSCCNCc2cccc(-c3ccncc3)c2)[C@@H](O)[C@H]1O [Compound 10k]    class 1
Nc1ncnc2c1ncn2[C@@H]1O[C@H](CSCCNCc2cccc(-c3ccc(F)c(O)c3)c2)[C@@H](O)[C@H]1O [Compound 10f]    class 0

(Q) Exam item: decide whether the reported inhibition at 10 µM for N=C(NCCCSC[C@H]1O[C@@H](n2cnc3c(NCCCc4ccccc4)ncnc32)[C@H](O)[C@@H]1O)NC1CC1 [Compound 19b] is at least 10%.
(A) class 1

(Q) Exam item: decide whether the reported inhibition at 10 µM for Nc1ncnc2c1ncn2[C@@H]1O[C@H](CSCCCNCc2cccc(-c3cccc(F)c3)c2)[C@@H](O)[C@H]1O [Compound 10q] is at least 10%.
(A) class 1

(Q) Exam item: decide whether the reported inhibition at 10 µM for Nc1ncnc2c1ncn2[C@@H]1O[C@H](CSCCOc2ccc(-c3cncnc3)cc2)[C@@H](O)[C@H]1O [Compound 14e] is at least 10%.
(A) class 0

###

Give inhibition at 10 µM for every item shown.
molecular target: PRMT6 (Homo sapiens); experiment: radioactive assay (Reaction Biology Corp.), inhibition of PRMT6; type: biochemical
Give bare numbers, in %.

The following molecules each have a reported value; give each one's inhibition at 10 µM.
1. Nc1ncnc2c1ncn2[C@@H]1O[C@H](CSCCCNCc2cccc(-c3ccc(C(F)(F)F)cc3)c2)[C@@H](O)[C@H]1O [Compound 10o]
2. Nc1ncnc2c1ncn2[C@@H]1O[C@H](CSCCNC(=O)NCc2ccccc2Br)[C@@H](O)[C@H]1O

(A)
37
-11

###

molecular target: PRMT1 (Homo sapiens, UniProt Q99873); construct: made in house; test: SAHH-coupled fluorescence assay, inhibition of PRMT1; format: biochemical
The threshold is inclusive: inhibition at 10 µM of exactly 10% counts as Met; values below receive Not met.

Example cases with answers are listed next.
Nc1ncnc2c1ncn2[C@@H]1O[C@H](CSCCOc2ccc(-c3ccc(Cl)cc3)cc2)[C@@H](O)[C@H]1O [Compound 14a]    Not met
N=C(NCCSC[C@H]1O[C@@H](n2cnc3c(N)ncnc32)[C@H](O)[C@@H]1O)Nc1ccccc1    Met
Nc1ncnc2c1ncn2[C@@H]1O[C@H](CSCCCNC(=O)NCCc2ccccc2)[C@@H](O)[C@H]1O    Met

(Q) Exam item: decide whether the reported inhibition at 10 µM for Nc1ncnc2c1ncn2[C@@H]1O[C@H](CSCCNCc2cccc(-c3ccc(O)cc3)c2)[C@@H](O)[C@H]1O [Compound 10b] is at least 10%.
(A) Met

(Q) Exam item: decide whether the reported inhibition at 10 µM for Nc1ncnc2c1ncn2[C@@H]1O[C@H](CSCCCNCc2cccc(-c3ccc(C(F)(F)F)cc3)c2)[C@@H](O)[C@H]1O [Compound 10o] is at least 10%.
(A) Met

(Q) Exam item: decide whether the reported inhibition at 10 µM for Nc1ncnc2c1ncn2[C@@H]1O[C@H](CSCCNC(=O)Nc2cccc3ccccc23)[C@@H](O)[C@H]1O is at least 10%.
(A) Met
